system: VISA LIM 3 (NRS37); assay: MIC/MBC broth microdilution, NRS37 (VISA LIM 3); format: cell-based; details: Staphylococcus aureus; Table 2; VISA LIM 3; read-out: Minimum Inhibitory Concentration
Please go through the items and note down their MIC.
Return type: number; implicit unit µg/mL.

The reported value for "CCCc1ccc(-c2nc(C)c(/C(C)=N/NC(=N)N)s2)cc1" in terms of MIC is 1.2

// MIC lookup, molecule = "C/C(=N\NC(=N)N)c1sc(-c2ccc(C3=CCCCC3)cc2)nc1C" , result: 0.6

Value of measured MIC for the entry "CCCCc1ccc(-c2nc(C)c(/C(C)=N/NC(=N)N)s2)cc1" : 1.4

Entry "CCCCCc1ccc(-c2nc(C)c(/C(C)=N/NC(=N)N)s2)cc1" , MIC reported as 0.5

"CCCCCCCc1ccc(-c2nc(C)c(/C(C)=N/NC(=N)N)s2)cc1" yielded MIC of 0.7

Sure, the documented MIC for "C/C(=N\NC(=N)N)c1sc(-c2ccc(C3CCCCC3)cc2)nc1C" is 0.4

----------
tested on: MRSA ATCC 43300; assay: MIC/MBC broth microdilution, MRSA ATCC 43300; format: cell-based, Staphylococcus aureus; settings: Staphylococcus aureus; Table 8; ATCC 43300; read-out: MIC
Kindly supply the reported MIC values for the records listed here.

"C/C(=N/NC(=N)N)c1sc(-c2ccc(-c3ccc(C(F)(F)F)cc3)cc2)nc1C" has a reported MIC of 8 µM

Input "CCCCc1ccc(-c2nc(C)c(/C(N)=N\O)s2)cc1" . Output MIC: > 128 µM

The reported value for "C/C(=N/NC(=N)N)c1sc(-c2ccc(-c3cccc4ccccc34)cc2)nc1C" in terms of MIC is 4 µM

// MIC value for "C/C(=N/NC(=N)N)c1sc(-c2ccc(-c3ccc(F)cc3)cc2)nc1C" : 16 µM

MIC reading for "CCCCc1ccc(-c2nc(C)c(/C(C)=N/NC(=N)N)s2)cc1" : 4 µM

Looking up "CC(=O)c1sc(-c2ccc(-c3cccc4ccccc34)cc2)nc1C" , I found its MIC recorded as > 128 µM

Quick note, MIC for "CC(=O)c1sc(-c2ccc(-c3ccc(F)cc3)cc2)nc1C" landed at > 128 µM

Entry "CCCCC#Cc1ccc(-c2nc(C)c(/C(C)=N/NC(=N)N)s2)cc1" — recorded MIC = 4 µM

Sure, the documented MIC for "CC(=O)c1sc(-c2ccc(-c3ccc(C(F)(F)F)cc3)cc2)nc1C" is > 128 µM

----------
test system: VRSA (VRS10); experiment: MIC/MBC broth microdilution, VRSA (VRS10); type: cell-based, Staphylococcus aureus; details: Staphylococcus aureus; Table 7; VRSA (VRS10); read-out: Minimum Bactericidal Concentration
For each record, write down the corresponding MBC.
I'd appreciate it if you wrote the number followed by its unit.

molecule "CC(=O)c1ccc(-c2ccc(-c3nc(C)c(/C(C)=N\NC(=N)N)s3)cc2)cc1" , MBC observed: 16 µM

The molecule listed as "C/C(=N/NC(=N)N)c1sc(-c2ccc(-c3ccc(C(F)(F)F)cc3)cc2)nc1C" shows MBC equal to 16 µM

Reported MBC ( "C/C(=N/NC(=N)N)c1sc(-c2ccc(-c3cccc4ccccc34)cc2)nc1C" ) = 8 µM

// MBC lookup, molecule = "C/C(=N/NC(=N)N)c1sc(-c2ccc(-c3ccc(F)cc3)cc2)nc1C" , result: 64 µM
